target: αvβ3 (Homo sapiens, UniProt P05106+P06756); construct: αVβ3 was purified from human placenta; from tissue; host or cells: human term placenta; test: Direct competition assay, vitronectin binding to isolated αvβ3; conditions: isolated receptor
Sequence (P06756 31-889 limits assumed): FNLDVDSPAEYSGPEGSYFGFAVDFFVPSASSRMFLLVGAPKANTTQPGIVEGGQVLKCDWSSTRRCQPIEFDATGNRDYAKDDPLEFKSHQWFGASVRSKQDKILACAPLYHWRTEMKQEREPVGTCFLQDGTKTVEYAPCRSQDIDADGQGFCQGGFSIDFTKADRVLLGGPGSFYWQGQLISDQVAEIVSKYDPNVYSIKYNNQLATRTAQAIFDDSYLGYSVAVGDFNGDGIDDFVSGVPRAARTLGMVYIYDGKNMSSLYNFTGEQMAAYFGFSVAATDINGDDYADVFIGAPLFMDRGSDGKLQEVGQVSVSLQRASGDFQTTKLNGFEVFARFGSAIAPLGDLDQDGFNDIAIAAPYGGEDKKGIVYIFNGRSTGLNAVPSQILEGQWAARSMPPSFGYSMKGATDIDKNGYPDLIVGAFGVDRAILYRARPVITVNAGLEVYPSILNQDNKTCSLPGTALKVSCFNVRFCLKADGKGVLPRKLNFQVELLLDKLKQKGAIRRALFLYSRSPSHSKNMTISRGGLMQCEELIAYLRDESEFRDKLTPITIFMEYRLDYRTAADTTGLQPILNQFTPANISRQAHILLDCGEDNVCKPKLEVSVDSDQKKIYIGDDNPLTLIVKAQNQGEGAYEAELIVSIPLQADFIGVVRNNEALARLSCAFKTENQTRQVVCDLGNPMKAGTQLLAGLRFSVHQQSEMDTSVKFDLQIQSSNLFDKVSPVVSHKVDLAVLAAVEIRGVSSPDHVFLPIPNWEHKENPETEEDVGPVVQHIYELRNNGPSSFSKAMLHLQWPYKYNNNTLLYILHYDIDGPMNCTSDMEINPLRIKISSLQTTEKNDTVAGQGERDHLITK
Sequence (P06756 891-1048 limits assumed): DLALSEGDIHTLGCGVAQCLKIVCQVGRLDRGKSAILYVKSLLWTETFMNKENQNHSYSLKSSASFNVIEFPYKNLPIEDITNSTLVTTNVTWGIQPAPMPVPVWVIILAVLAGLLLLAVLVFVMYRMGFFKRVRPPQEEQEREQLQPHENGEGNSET
Sequence (P05106 27-788): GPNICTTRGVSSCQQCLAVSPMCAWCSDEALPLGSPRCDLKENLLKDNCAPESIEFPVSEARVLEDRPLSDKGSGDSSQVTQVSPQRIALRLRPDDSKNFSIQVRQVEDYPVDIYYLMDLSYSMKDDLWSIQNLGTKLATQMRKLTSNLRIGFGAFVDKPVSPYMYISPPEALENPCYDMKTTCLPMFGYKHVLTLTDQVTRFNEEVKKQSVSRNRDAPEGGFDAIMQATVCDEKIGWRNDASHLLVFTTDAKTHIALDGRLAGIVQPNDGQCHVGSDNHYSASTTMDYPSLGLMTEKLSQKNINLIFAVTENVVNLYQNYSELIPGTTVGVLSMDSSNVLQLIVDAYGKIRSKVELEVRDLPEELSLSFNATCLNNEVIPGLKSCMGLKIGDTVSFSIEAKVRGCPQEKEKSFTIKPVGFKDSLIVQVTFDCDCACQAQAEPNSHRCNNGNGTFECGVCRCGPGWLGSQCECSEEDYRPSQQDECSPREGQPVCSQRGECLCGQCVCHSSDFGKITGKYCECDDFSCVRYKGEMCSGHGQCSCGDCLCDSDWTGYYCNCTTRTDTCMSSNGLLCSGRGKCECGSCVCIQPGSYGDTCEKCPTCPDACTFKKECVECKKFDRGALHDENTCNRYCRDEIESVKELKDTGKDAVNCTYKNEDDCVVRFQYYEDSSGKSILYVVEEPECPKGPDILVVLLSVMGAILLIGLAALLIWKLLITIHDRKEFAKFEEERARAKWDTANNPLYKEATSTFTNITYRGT
pIC50: −log10 of the molar value.
QUANTITY: pIC50

Inquiry: For GRGDSPK [Gly-Arg-Gly-Asp-Ser-Pro-Lys] , what is its reported pIC50?
Reply text: ~5.70
